Biological target: Amine oxidase [flavin-containing] A (Homo sapiens)
Sequence (P21397 whole entry): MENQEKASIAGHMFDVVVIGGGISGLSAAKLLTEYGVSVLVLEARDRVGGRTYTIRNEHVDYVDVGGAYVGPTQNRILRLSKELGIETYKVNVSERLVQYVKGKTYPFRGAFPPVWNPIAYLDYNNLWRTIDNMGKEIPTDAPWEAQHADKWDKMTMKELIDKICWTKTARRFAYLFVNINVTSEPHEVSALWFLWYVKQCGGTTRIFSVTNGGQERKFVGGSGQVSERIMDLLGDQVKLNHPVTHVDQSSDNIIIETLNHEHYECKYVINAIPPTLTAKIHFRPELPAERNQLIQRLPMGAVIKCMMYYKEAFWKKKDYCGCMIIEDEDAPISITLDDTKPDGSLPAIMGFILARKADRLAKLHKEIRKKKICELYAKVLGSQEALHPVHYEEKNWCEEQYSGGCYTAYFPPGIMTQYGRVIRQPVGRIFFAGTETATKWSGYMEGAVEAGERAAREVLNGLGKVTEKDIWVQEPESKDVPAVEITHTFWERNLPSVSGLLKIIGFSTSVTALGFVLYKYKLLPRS
Experiment: Inhibition of recombinant human MAO-A expressed in baculovirus infected BTI insect cells at 10 uM using kynuramine as substrate measured after 30 mins by fluorescence based assay relative to control
Details: 0.5 h
Lab note: compare inhibition at 10 µM against 3%. Equal or greater, write criterion met. Smaller, write criterion not met.

# molecule, tested_on, group_label
measured = [
    ("CCN(CCCCC1OC(=O)c2cc(OC)c(OC)cc21)Cc1ccc(N(C)C)cc1 (stereo unspecified)", "Amine oxidase [flavin-containing] A (Homo sapiens)", "criterion met"),
    ("COc1ccccc1CN(C)CCC/C=C1\\OC(=O)c2cc(OC)c(OC)cc21", "Amine oxidase [flavin-containing] A (Homo sapiens)", "criterion not met"),
    ("CCN(CC)CCC/C=C1/OC(=O)c2cc(OC)c(OC)cc21", "Amine oxidase [flavin-containing] A (Homo sapiens)", "criterion met"),
    ("CCN(CCC/C=C1\\OC(=O)c2cc(OC)c(OC)cc21)Cc1ccccc1", "Amine oxidase [flavin-containing] A (Homo sapiens)", "criterion met"),
    ("COc1cc2c(cc1OC)/C(=C/CCCN1CCCCC1)OC2=O", "Amine oxidase [flavin-containing] A (Homo sapiens)", "criterion not met"),
    ("COc1cc2c(cc1OC)C(CCCCN1CCCCC1)OC2=O (stereo unspecified)", "Amine oxidase [flavin-containing] A (Homo sapiens)", "criterion not met"),
]

From: ChEMBL document CHEMBL4616631
